system: HIV-1 strain IIIB in T lymphoid MT-2 cell lines; assay: inhibition of growth of HIV-1 strain IIIB in T lymphoid MT-2 cell lines (metabolic MTT dye); type: cell-based; conditions: Human immunodeficiency virus 1, IIIB, MT2, 120 h, 0.625 μg/ml; 5 days; read-out: % Inhibition at concentration 0.625 μg/ml
EXPERIMENTAL ENDPOINT: inhibition at 0.625 µg/mL
Reply with the number and its unit after it.

CC(C)(C)NC(=O)[C@@H]1C[C@@H]2CCCC[C@@H]2CN1CC(O)C[C@@H](Cc1ccccc1)C(=O)N[C@H]1CCCC[C@@H]1NC(=O)c1cc2ccccc2cn1 (some centres unmarked)    12.9%
CC[C@H](C)[C@H](NC(=O)[C@H](Cc1ccccc1)CC(O)CN1C[C@H]2CCCC[C@H]2C[C@H]1C(=O)NC(C)(C)C)C(=O)N[C@@H](C)c1nc2ccccc2[nH]1 (some centres unmarked)    55.1%
CC[C@H](C)[C@H](NC(=O)[C@H](Cc1ccccc1)CC(O)CN1C[C@H]2CCCC[C@H]2C[C@H]1C(=O)NC(C)(C)C)C(=O)NCc1nc2ccccc2[nH]1 (some centres unmarked) [Example 23]    95.8%
CC(C)(C)NC(=O)[C@@H]1C[C@@H]2CCCC[C@@H]2CN1CC(O)C[C@@H](Cc1ccccc1)C(=O)N[C@H]1CCCC[C@@H]1NC(=O)c1ccc2ccccc2n1 (some centres unmarked)    4.37%

Now look at this entry.
**Query** Could you tell me which inhibition at 0.625 µg/mL is on file for CC(C)(C)NC(=O)[C@@H]1C[C@@H]2CCCC[C@@H]2CN1CC(O)(CO)C[C@@H](Cc1ccccc1)C(=O)N[C@H]1CCCC[C@@H]1NC(=O)c1cc2ccccc2cn1 (some centres unmarked) ?
**Result** 0.91%
